Each recorded value in this set is attributed to ChEMBL document CHEMBL5058577.

# Tested on: Fibroblast
# test name: Multiplex assay against human fibroblast
# Type: toxicity, cell-based
# experimental context: 48 h, 1 µM, compound concentration 1 uM, replicate 2
Below, each entry is listed alongside its reported Population Fragmented Nuclei (%).
Numeric only. Scale: %

Solved cases (5 shown):
{"molecule": "Cc1ccc(/C(=C\\CN2CCCC2)c2ccccn2)cc1", "display unit": "%", "Population Fragmented Nuclei (%)": 29}
{"molecule": "O=C(NCCO)c1cccc(-c2cc(Nc3ccc(OC(F)(F)F)cc3)ncn2)c1", "display unit": "%", "Population Fragmented Nuclei (%)": 31}
{"molecule": "COc1cc(C(=O)N(CCCc2ccccc2)Cc2ccc(CC(=O)O)cc2)cc(OC)c1C", "display unit": "%", "Population Fragmented Nuclei (%)": 50}
{"molecule": "Oc1c(CN2CCN(c3ccccn3)CC2)cc(Cl)c2cccnc12", "display unit": "%", "Population Fragmented Nuclei (%)": 25}
{"molecule": "c1cc(OCCCN2CCCCC2)ccc1CN1CCCCC1", "display unit": "%", "Population Fragmented Nuclei (%)": 32}

Problem: Provide only the value of recorded Population Fragmented Nuclei (%) for `CN(C)CCCc1cc(C(=O)Nc2ccc(-c3ccncc3)cc2)ccc1O.Cl.Cl`
Result: 23

Problem: Tell me Population Fragmented Nuclei (%) reported for `CC(=O)NCCc1c(Cc2ccccc2)[nH]c2ccccc12`
Result: 27

Problem: Quickly give me recorded Population Fragmented Nuclei (%) for `CN1CCN(c2nc3cc(C(F)(F)F)ccc3n3cccc23)CC1.O=C(O)/C=C\C(=O)O.O=C(O)/C=C\C(=O)O`
Result: 37

Problem: Fill in reported Population Fragmented Nuclei (%) for this entry: CNC[C@H](O)c1ccc(O)c(O)c1 [EPINEPHRINE]
Result: 41

Problem: Tell us which Population Fragmented Nuclei (%) value is on record for `N[C@@]1(C(=O)O)CO[C@H]2[C@H](C(=O)O)[C@H]21`
Result: 33

Problem: Read the entry `O=C(O)c1cc2ccccc2c(Cc2c(O)c(C(=O)O)cc3ccccc23)c1O` and write its reported Population Fragmented Nuclei (%).
Result: 23

Problem: Answer with reported Population Fragmented Nuclei (%) of `O=C(O)Cc1ccccc1Nc1c(Cl)cccc1Cl`
Result: 36

====

# Test system: HEK-293T
# test name: Multiplex assay against HEK293T
# Type: toxicity, cell-based
# experimental context: human, 12 h, 10 µM, compound concentration 10 uM, replicate 2
readout type: Population Tubulin-Different-Phenotype (%)
The reply should be a number in %, with the unit left off.

Problem: Fill in reported Population Tubulin-Different-Phenotype (%) for this entry: `O=C1COc2nccc(-c3ccccc3F)c2CN1Cc1cc(C(F)(F)F)cc(C(F)(F)F)c1`
Result: 39

Problem: // Input: CSc1ccccc1N1CCN(CCCCCC(=O)NC2CCCc3ccccc32)CC1.Cl (stereo unspecified) . Output its Population Tubulin-Different-Phenotype (%) only.
Result: 65

Problem: Please report the measured Population Tubulin-Different-Phenotype (%) for Cl.Clc1ccc2nsnc2c1NC1=NCCN1 [TIZANIDINE HYDROCHLORIDE]
Result: 27

Problem: Dear colleague, please send me the reported Population Tubulin-Different-Phenotype (%) for `CC[C@H]1OC(=O)[C@H](C)[C@@H](O[C@H]2C[C@@](C)(OC)[C@@H](O)[C@H](C)O2)[C@H](C)[C@@H](O[C@@H]2O[C@H](C)C[C@H](N(C)C)[C@H]2O)[C@@]2(C)CC(C)=C(O2)[C@H](C)[C@@H](O)[C@]1(C)O` when you can.
Result: 77

Problem: Report Population Tubulin-Different-Phenotype (%) for `CN(C)c1ccnc2sc3c(=O)n(N4CCCCCC4)cnc3c12`
Result: 59

Problem: Report Population Tubulin-Different-Phenotype (%) for `Oc1c(CN2CCN(c3ccccn3)CC2)cc(Cl)c2cccnc12`
Result: 32

Problem: Specify Population Tubulin-Different-Phenotype (%) for COc1ccc2c(c1)C(C(=O)N(Cc1ccc(N(C)C)cc1)c1ccc(C(C)C)cc1)CCC2.Cl (stereo unspecified) and stop.
Result: 57

Problem: Input `O=C(NCCO)c1cccc(-c2cc(Nc3ccc(OC(F)(F)F)cc3)ncn2)c1` , output reported Population Tubulin-Different-Phenotype (%).
Result: 26

Problem: Return reported Population Tubulin-Different-Phenotype (%). Input molecule: `CC1(COc2ccc3c(c2)ncn3-c2ccc3cccc(N4CCC(N)CC4)c3n2)COC1`
Result: 50

Problem: Report measured Population Tubulin-Different-Phenotype (%); entry is `C[C@@H]1C[C@H]2[C@@H]3CCC4=CC(=O)C=C[C@]4(C)[C@@]3(F)[C@@H](O)C[C@]2(C)[C@@]1(O)C(=O)CO`
Result: 39

Problem: Quickly give me recorded Population Tubulin-Different-Phenotype (%) for `O=C(NCC(=O)N1CC[C@H](N[C@H]2CC[C@@](O)(c3ccc(-c4ncccn4)cn3)CC2)C1)c1cccc(C(F)(F)F)c1`
Result: 45

====

In this section we review reported Population Healthy Nuclei (%) values for a set of compounds.
# Tested on: Fibroblast
# test name: Multiplex assay against human fibroblast
# Format: toxicity, cell-based
# experimental context: 48 h, 10 µM, compound concentration 10 uM, replicate 2
Entry rule: numbers only, all in %.

# example entries with known answers
{"compound string": "CCCC(CCC)C(=O)O", "readout type": "Population Healthy Nuclei (%)", "assay value": 51}
{"compound string": "Cc1ccc(F)cc1C(=O)Nc1ccc(C(=O)N2Cc3cccn3Cc3ccccc32)c(Cl)c1", "readout type": "Population Healthy Nuclei (%)", "assay value": 51}

Turning now to a further record.
Problem: Specify measured Population Healthy Nuclei (%) for `O=C1COc2nccc(-c3ccccc3F)c2CN1Cc1cc(C(F)(F)F)cc(C(F)(F)F)c1` .
Result: 49

====

The entries below are paired with their reported Population Membrane Permeable-Phenotype (%).
# Test system: U2OS
# test name: Multiplex assay against U2OS
# Format: toxicity, cell-based
# experimental context: human, 12 h, 1 µM, compound concentration 1 uM, replicate 1
Field: numeric (%). Do not append units.

{"compound": "COc1cc(NC(=O)CCN2CCC(OC(=O)Nc3ccccc3-c3ccccc3)CC2)c(Cl)cc1CNC[C@H](O)c1ccc(O)c2[nH]c(=O)ccc12", "display unit": "%", "assay value": 5}
{"compound": "Cc1ccccc1C(=O)Nc1ccc(C(=O)N2CCCC(N(C)C)c3ccccc32)cc1.Cl (stereo not drawn)", "display unit": "%", "assay value": 5}

For the next question, use this compound.
Problem: Name the recorded Population Membrane Permeable-Phenotype (%) of the item `c1cc(OCCCN2CCCCC2)ccc1CN1CCCCC1` in your answer.
Result: 5

====

# System: U2OS
# test name: Multiplex assay against U2OS
# Format: toxicity, cell-based
# experimental context: human, 24 h, 1 µM, compound concentration 1 uM, replicate 1
readout type: Total Cell Count

Consider the following illustrative entries.
{"compound": "CCCN1CCC[C@@H]2Cc3n[nH]cc3C[C@H]21.Cl [QUINPIROLE HYDROCHLORIDE]", "Total Cell Count": 299}
{"compound": "Oc1c(CN2CCN(c3ccccn3)CC2)cc(Cl)c2cccnc12", "Total Cell Count": 270}
{"compound": "Cc1ccc(-c2ccc(F)cc2COc2ccc(CCC(=O)O)cc2)cc1", "Total Cell Count": 340}
{"compound": "C[C@H]1[C@H]2CC[C@H]3[C@@H]4CC=C5C[C@@H](N(C)C)CC[C@]5(C)[C@H]4CC[C@]23CN1C", "Total Cell Count": 307}

Problem: Fill in: Total Cell Count on U2OS, entry `CN1CCN(c2nc3cc(C(F)(F)F)ccc3n3cccc23)CC1.O=C(O)/C=C\C(=O)O.O=C(O)/C=C\C(=O)O`
Result: 300

Problem: # return Total Cell Count of `C[C@H](NC(=O)c1c(C(F)F)nn(C)c1Oc1cccc(C(F)(F)F)c1)c1ccc(C(=O)O)cc1` (system: U2OS)
Result: 316

Problem: Report the value of Total Cell Count obtained on U2OS for `O=C(O)c1cc2ccccc2c(Cc2c(O)c(C(=O)O)cc3ccccc23)c1O` .
Result: 288

====

# Test system: HEK-293T
# test name: Multiplex assay against HEK293T
# Assay type: toxicity, cell-based
# experimental context: human, 24 h, 1 µM, compound concentration 1 uM, replicate 1
Each entry gets not met if its Population Fragmented Nuclei (%) stays under 10%, and met if its Population Fragmented Nuclei (%) is 10% or above.

{"molecule": "CCCn1c(=O)c2[nH]c(C3CCCC3)nc2n(CCC)c1=O", "category": "not met"}
{"molecule": "C[C@@H]1C[C@H]2[C@@H]3CCC4=CC(=O)C=C[C@]4(C)[C@@]3(F)[C@@H](O)C[C@]2(C)[C@@]1(O)C(=O)CO [DEXAMETHASONE]", "category": "not met"}
{"molecule": "CCOc1c2c(c(OCC)c3ncccc13)CN(c1ccc(CS(=O)(=O)NC(=O)Cc3ccccc3OC)cc1C)C2=O", "category": "met"}
{"molecule": "COc1cc(C(=O)N(CCCc2ccccc2)Cc2ccc(CC(=O)O)cc2)cc(OC)c1C", "category": "not met"}
{"molecule": "CC1(COc2ccc3c(c2)ncn3-c2ccc3cccc(N4CCC(N)CC4)c3n2)COC1 [CRENOLANIB]", "category": "met"}

For the next question, use this molecule.
Problem: Is Population Fragmented Nuclei (%) at least 10%? Consider `O=C(NCCO)c1cccc(-c2cc(Nc3ccc(OC(F)(F)F)cc3)ncn2)c1`
Result: met
